Value source: PubChem BioAssay (NCI)

Can you tell me growth inhibition for the items I'm about to list?
experiment: NCI Yeast Anticancer Drug Screen. Data for the rad50 strain (AID 155);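 further: 0% = growth of vehicle-only cultures of the same strain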; settings: S. cerevisiae rad50 strain growth inhibition; at 5.0 µM (retest, dose inferred, filed as 0.5); hits give high values
The panel holds about 79,000 compounds, 15% with a hit somewhere; the sample as a whole holds those more often.
Answers are plain numbers, in %.

Examples with answers:
COc1ccc(CN2CCCN(Cc3ccc(OC)cc3OC)C2c2cc(Cl)ccc2O)c(OC)c1 = 7
Cc1nn(C(=O)c2ccccc2O)c2c1C(c1ccco1)SC(N)=N2 (stereo unspecified) = -6
N#C/C(=C\C(Cl)=C/c1ccccc1)C(N)=S = 68

Parameters: items (list). Returns: growth inhibition for each item.
1. CN(CCO)CCn1cnc2c1c(=O)n(C)c(=O)n2C
2. C/C(=N\NC(=S)Nc1ccc([N+](=O)[O-])cc1)c1nc2ncccc2[nH]1

1. -7
2. -8
